Entries and their measured cytotoxicity at 10 µM follow.
ASSAY_TEXT: Toxicity liver stage against HepG2, at 10uM
Format: cell-based
Parameters: test concentration 10 uM, cell line HepG2-A16-CD81EGFP
CONDITION_SUMMARY: human, HepG2-A16-CD81EGFP cells; read-out: INHIBITION
API: value field is a number in %; no unit string.

# annotated cases, reported cytotoxicity at 10 µM shown
COMPOUND	MEASURED
CN(C(=O)CC1=CCCCC1)C1CCCN(C2Cc3ccccc3C2)C1 (centres undefined)	-0.296
CC(C)[C@@H]1CN(C(=O)C2(c3ccccc3)CCN(C)CC2)C[C@H]1N(C)C	-32
O=C(CCS(=O)(=O)C1CCCC1)N1CCCC(n2ccnc2)C1 (centres undefined)	-0.968
NC(=O)CCCNC(=O)COc1ccccc1C(F)(F)F	2.49

Q: Dear colleague, I am looking for the recorded cytotoxicity at 10 µM of the following compound: `Cc1nccn1CCN(C)c1nc(-c2cccnc2)nc2c1CCNC2`
A: -21.2

Q: Dear colleague, I am looking for the recorded cytotoxicity at 10 µM of the following compound: `c1cnc(NCc2nnn3c2CN(Cc2cccs2)CCC3)nc1`
A: 10.1

Q: Dear colleague, I am looking for the recorded cytotoxicity at 10 µM of the following compound: `O=C(NCCNc1ccccn1)N1CCC(O)CC1`
A: -8.66

These data points were gathered from ChEMBL document CHEMBL4513216.
